System: Huvec
Test: bFGF Huvec proliferation
Type: cell-based, human
Details: Homo sapiens, HUVEC
Form field: IC50 (one value per entry).
Hi! Could you send only the number? It should be in nM, unit omitted.

CCCNC(=O)c1c(C)n(C)c2cc(Oc3ccnc4cc(-c5nccs5)sc34)ccc12 1700

## Task Recorded IC50 of "Cc1c(C(=O)NCCCO)c2ccc(Oc3ccnc4cc(C(=O)N5CCCC5)sc34)cc2n1C" , please.
## Result 10000

## Task Quick one: IC50 for "CNC(=O)c1c(C)n(C)c2cc(Oc3ccnc4cc(C(=O)N5CCC5)sc34)ccc12" ?
## Result 7460

## Task Sample "COC[C@@H]1CCCN1C(=O)c1cc2nccc(Oc3ccc4c(C(=O)NC(C)C)c(C)oc4c3)c2s1" — what was its IC50?
## Result 2060

## Task // IC50 lookup, key: "CNC(=O)c1c(C)n(C)c2cc(Oc3ccnc4cc(C(=O)N5CCCC5)sc34)ccc12"
## Result 462

Reference source for all entries: patent US7045528B2
